These entries and their values trace back to ChEMBL document CHEMBL1153438.

experimental-details: Octanol-water partition coefficient, log P of the compound
Type: physicochemical
Respond with condition met for logP values of 0.3 and above, condition not met for values below.

Please review the entries below; each comes with its answer.
# mol-smiles, discrete-label
measured = [
    ("COc1cc([C@@H]2c3cc4c(cc3[C@@H](N[C@@H](CCSC)C(=O)OCCCn3cc(F)c(=O)[nH]c3=O)[C@H]3COC(=O)[C@H]23)OCO4)cc(OC)c1O", "condition not met"),
    ("COc1cc([C@@H]2c3cc4c(cc3[C@@H](N[C@H](C(=O)OCCCn3cc(F)c(=O)[nH]c3=O)C(C)C)[C@H]3COC(=O)[C@H]23)OCO4)cc(OC)c1O", "condition met"),
    ("COc1cc([C@@H]2c3cc4c(cc3[C@@H](N[C@@H](C)C(=O)OCCCn3cc(F)c(=O)[nH]c3=O)[C@H]3COC(=O)[C@H]23)OCO4)cc(OC)c1O", "condition not met"),
    ("CC[C@H](C)[C@H](N[C@@H]1c2cc3c(cc2[C@@H](c2cc(OC)c(O)c(OC)c2)[C@H]2C(=O)OC[C@@H]21)OCO3)C(=O)OCCCn1cc(F)c(=O)[nH]c1=O", "condition met"),
]

Input line: Assess whether reported logP for COc1cc([C@@H]2c3cc4c(cc3[C@@H](N[C@@H](Cc3ccccc3)C(=O)OCCCn3cc(F)c(=O)[nH]c3=O)[C@H]3COC(=O)[C@H]23)OCO4)cc(OC)c1O sits at 0.3 or higher.
Output line: condition met

Input line: Assess whether reported logP for COc1cc([C@@H]2c3cc4c(cc3[C@@H](N[C@@H](CC(C)C)C(=O)OCCCn3cc(F)c(=O)[nH]c3=O)[C@H]3COC(=O)[C@H]23)OCO4)cc(OC)c1O sits at 0.3 or higher.
Output line: condition met

Input line: Assess whether reported logP for COc1cc([C@@H]2c3cc4c(cc3[C@@H](N[C@@H](Cc3ccc(O)cc3)C(=O)OCCCn3cc(F)c(=O)[nH]c3=O)[C@H]3COC(=O)[C@H]23)OCO4)cc(OC)c1O sits at 0.3 or higher.
Output line: condition not met
